I'd appreciate it if you could supply Dmax values for the items below.
- TARGET_OR_TEST_SYSTEM: EGFR L858R/T790M/C797S (BaF3-LTC cells) (Homo sapiens, UniProt P00533, C797S/L858R/T790M)
- Construct: expressed in transfected cells; host or cells: BaF3
- Sequence (P00533 25-1210 T790M/C797S/L858R): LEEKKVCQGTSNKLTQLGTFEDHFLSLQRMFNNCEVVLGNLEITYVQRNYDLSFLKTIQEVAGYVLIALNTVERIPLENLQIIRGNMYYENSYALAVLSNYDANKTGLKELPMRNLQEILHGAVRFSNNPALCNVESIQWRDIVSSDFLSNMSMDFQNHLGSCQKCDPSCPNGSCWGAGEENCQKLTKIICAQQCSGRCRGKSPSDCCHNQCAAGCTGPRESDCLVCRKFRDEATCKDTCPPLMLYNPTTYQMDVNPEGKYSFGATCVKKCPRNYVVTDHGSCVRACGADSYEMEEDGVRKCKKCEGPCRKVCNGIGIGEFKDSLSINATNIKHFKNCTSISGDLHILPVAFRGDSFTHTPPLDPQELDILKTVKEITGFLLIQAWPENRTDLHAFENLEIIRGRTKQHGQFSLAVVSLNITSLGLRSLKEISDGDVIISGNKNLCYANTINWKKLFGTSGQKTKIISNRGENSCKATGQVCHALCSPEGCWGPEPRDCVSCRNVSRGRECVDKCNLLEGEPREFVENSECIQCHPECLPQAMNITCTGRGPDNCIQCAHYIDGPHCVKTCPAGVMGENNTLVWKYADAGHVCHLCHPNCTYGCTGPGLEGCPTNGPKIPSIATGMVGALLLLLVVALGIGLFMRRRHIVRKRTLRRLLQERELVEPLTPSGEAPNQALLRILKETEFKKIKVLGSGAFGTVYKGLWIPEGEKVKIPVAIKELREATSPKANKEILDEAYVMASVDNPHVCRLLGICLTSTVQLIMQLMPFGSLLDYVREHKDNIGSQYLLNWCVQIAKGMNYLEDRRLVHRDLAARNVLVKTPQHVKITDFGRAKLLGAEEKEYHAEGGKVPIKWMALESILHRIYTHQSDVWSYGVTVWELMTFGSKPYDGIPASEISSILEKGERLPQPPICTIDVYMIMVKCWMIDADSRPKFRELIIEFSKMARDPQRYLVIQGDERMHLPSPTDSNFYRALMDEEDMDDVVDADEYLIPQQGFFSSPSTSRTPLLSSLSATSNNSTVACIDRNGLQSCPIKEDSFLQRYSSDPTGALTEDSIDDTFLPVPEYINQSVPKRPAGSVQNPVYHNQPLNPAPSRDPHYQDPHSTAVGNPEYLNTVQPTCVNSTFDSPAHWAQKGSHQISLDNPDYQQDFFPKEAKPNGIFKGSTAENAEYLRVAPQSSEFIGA
- METHOD_SUMMARY: EGFR degradation HTRF assay, BaF3-LTC cells
- Assay type: cell-based
- MEASUREMENT_CONDITIONS: BaF3-LTC, 16h treatment, maximum percentage of degradation; read-out: LTC Dmax (%)
Remember to put the unit after the number in your answer.

Ask | Entry CCc1cc(Nc2ncc(Br)c(Nc3ccc4nccnc4c3P(C)(C)=O)n2)c(OC)cc1N1CCC(N2CCN(CCc3cc(F)c(C4CCC(=O)NC4=O)cc3Cl)CC2)CC1 (stereo not shown) needs its Dmax filled in; supply it.
Reply | 84.2%

Ask | Entry CCc1cc(Nc2ncc(Br)c(Nc3ccc4nccnc4c3P(C)(C)=O)n2)c(OC)cc1N1CCC(N2CCN(CC3CN(c4ccc(C5CCC(=O)NC5=O)cc4)C3)CC2)CC1 (stereo not shown) needs its Dmax filled in; supply it.
Reply | 77.6%

Ask | Entry CCc1cc(Nc2ncc(Br)c(Nc3ccc4c(=O)n(C)ncc4c3P(C)(C)=O)n2)c(OC)cc1N1CCC(N2CCN(CCC3CCN(c4cc(F)c(C5CCC(=O)NC5=O)c(F)c4)CC3)CC2)CC1 (stereo not shown) needs its Dmax filled in; supply it.
Reply | 84.2%

Ask | Entry CCc1cc(Nc2ncc(Br)c(Nc3ccc4nccnc4c3P(C)(C)=O)n2)c(OC)cc1N1CCC(N2CCN(C(=O)C3CN(c4ccc(C5CCC(=O)NC5=O)c(C#N)c4)C3)CC2)CC1 (stereo not shown) needs its Dmax filled in; supply it.
Reply | 85.8%

Ask | Entry CCc1cc(Nc2ncc(Br)c(Nc3ccc4nccnc4c3P(C)(C)=O)n2)c(OC)cc1N1CCC(N2CCN(C[C@@H]3CCN(c4ccc5c(c4)CN(C4CCC(=O)NC4=O)C5=O)C3)CC2)CC1 (stereo partly shown) needs its Dmax filled in; supply it.
Reply | 87.8%

Ask | Entry CCc1cc(Nc2ncc(Br)c(Nc3ccc4nc(C)ccc4c3P(C)(C)=O)n2)c(OC)cc1N1CCC(N2CCN(CCc3ccc4c(c3)C(C)(C)C(=O)N4C3CCC(=O)NC3=O)CC2)CC1 (stereo not shown) needs its Dmax filled in; supply it.
Reply | 90.8%

Ask | Entry CCc1cc(Nc2ncc(C(C)=O)c(Nc3ccc4nccnc4c3P(C)(C)=O)n2)c(OC)cc1N1CCC(N2CCN(CCC3CCN(c4cc(F)c(C5CCC(=O)NC5=O)c(F)c4)CC3)CC2)CC1 (stereo not shown) needs its Dmax filled in; supply it.
Reply | 87.8%

Ask | Entry CCc1cc(Nc2ncc(Br)c(Nc3ccc4nccnc4c3P(C)(C)=O)n2)c(OC)cc1N1CCC(N2CCN(C(=O)C3CN(c4ccc5c(c4)C(=O)N(C4CCC(=O)NC4=O)C5)C3)CC2)CC1 (stereo not shown) needs its Dmax filled in; supply it.
Reply | 91.8%

Ask | Entry CCc1cc(Nc2ncc(Br)c(Nc3ccc4nccnc4c3P(C)(C)=O)n2)c(OC)cc1N1CCC(N2CCN(CCc3cc(F)c(C4CCC(=O)NC4=O)c(Cl)c3)CC2)CC1 (stereo not shown) needs its Dmax filled in; supply it.
Reply | 88.3%

Ask | Entry CCc1cc(Nc2ncc(Br)c(Nc3ccc4nccnc4c3P(C)(C)=O)n2)c(OC)cc1N1CCC(N2CCN(CCc3ccc(C4CCC(=O)NC4=O)c(F)c3F)CC2)CC1 (stereo not shown) needs its Dmax filled in; supply it.
Reply | 88.7%
